Tested on: MALME-3M melanoma
Procedure summary: NCI tumour cell line growth inhibition, 48 h; in the data active means GI50 below about 0.43 µM; inactive means the rest
API: response.call in active, inactive

Solved entries:
[[record]]
substance_smiles = "COC(=O)[C@H](C[C@H](Cc1ccccc1)NC(=O)c1csc([C@@H](C[C@H](C(C)C)N(C)C(=O)[C@@H](NC(=O)[C@H]2CCCCN2C)C(C)C)OC(C)=O)n1)NC(=O)OCc1ccccc1"
study_system = "MALME-3M melanoma"
class = "active"

[[record]]
substance_smiles = "COc1ccc(-c2nn3c(-c4cc(F)c(Cl)cc4Cl)nnc3s2)cc1"
study_system = "MALME-3M melanoma"
class = "inactive"

[[record]]
substance_smiles = "COc1ccc2c(c1)/C(=C\\c1c(C)nc3sccn13)C(=O)N2"
study_system = "MALME-3M melanoma"
class = "active"

[[record]]
substance_smiles = "CCOC(=O)c1cc(NS(=O)(=O)c2ccccc2)cc(C(=O)OCC)c1"
study_system = "MALME-3M melanoma"
class = "inactive"


Kindly review the next compound as well.
Which outcome did this test record for the compound O=C(CCCCCCC(=O)Nc1ccc(N(CCCl)CCCl)cc1)NO ? inactive

###

System: UACC-257 melanoma
Procedure summary: NCI tumour cell line growth inhibition, 48 h
Assay readout: log10(TGI) (log10 of the value in µM)
Scale: decimal log of TGI, TGI in µM.

[[record]]
compound = "COc1ccc2c(C)cc(N/N=C(\\C)C=O)nc2c1"
assay_readout = "log10(TGI)"
numeric_result = 1.53

[[record]]
compound = "COC(=O)[C@H](C[C@H](Cc1ccccc1)NC(=O)c1csc([C@@H](C[C@H](C(C)C)N(C)C(=O)[C@@H](NC(=O)[C@H]2CCCCN2C)C(C)C)OC(C)=O)n1)NC(=O)OCc1ccccc1"
assay_readout = "log10(TGI)"
numeric_result = 0.44

[[record]]
compound = "O=C(/C=C/c1ccccc1)CCN1CCN(CCC(=O)/C=C/c2ccccc2)CC1"
assay_readout = "log10(TGI)"
numeric_result = 1.38

[[record]]
compound = "CCCCC(CC)CN=C(N)NC(N)=NCCCCCCN=C(N)NC(N)=NCC(CC)CCCC (configuration not stated)"
assay_readout = "log10(TGI)"
numeric_result = 0.94

[[record]]
compound = "CCCC(C)c1cc(Cc2cc(Cl)cc(Cl)c2O)c(O)c(Cc2cc(Cl)cc(Cl)c2O)c1 (configuration not stated)"
assay_readout = "log10(TGI)"
numeric_result = 0.79


Quick one: log10(TGI) for COc1ccc(OC)c(/C=C2\SC(=S)NC2=O)c1 ? 1.79

Entry COc1ccc2c(c1)cn1c3ccc(O)cc3nc(N)c21 please 0.00

Here is the next compound: Cc1ccccc1[P+](Cc1ccccc1)(c1ccccc1)c1ccccc1 0.63

One more compound: CC#C[C@]1(O)CC[C@H]2[C@@H]3CCC4=CC(=O)CCC4=C3[C@@H](c3ccc4c(c3)OCO4)C[C@@]21C 2.61

###

Tested on: NCI-H23 lung
Procedure summary: NCI tumour cell line growth inhibition, 48 h
Reported TGI by item:

[[record]]
compound = "CC#CC#C/C=C1/O[C@]2(CCC(OC(C)=O)CO2)[C@@H]2O[C@H]12 (some centres undefined)"
result = "44.7 µM"

[[record]]
compound = "COC(=O)c1ccccc1CC1Cc2ccc3c(c2C1=O)CCC3 (centres undefined)"
result = "> 100 µM"

[[record]]
compound = "C/C(=N\\NS(=O)(=O)c1ccccc1)c1ccc(Cl)c(Cl)c1"
result = "> 100 µM"


// lookup TGI | system=NCI-H23 lung | key= Cc1ccc(N=Cc2ccc3c(c2)OCO3)cc1C > 100 µM

Please give the result for CC(=O)CCCCC(=O)Nc1ccc(CC(NC(=O)OC(C)(C)C)C(=O)NCC(=O)OCc2ccccc2)cc1 (centres undefined) too. 76.6 µM

Then what about the compound O=C1[C@H]2ON(c3ccccc3)C(c3ccccc3Cl)[C@H]2C(=O)N1c1ccc(Cc2ccc(N3C(=O)[C@@H]4ON(c5ccccc5)C(c5ccccc5Cl)[C@@H]4C3=O)cc2)cc1 (some centres undefined) ? > 100 µM

Check C[n+]1c2ccccc2c(C(=O)Nc2ccc(S(=O)(=O)Nc3ccnn3-c3ccccc3)cc2)c2ccccc21 too. > 100 µM

Continue with CCCCCCCCCCC(C(=O)O)C1(C(=O)O)CCC(=O)O1 (centres undefined) > 100 µM

Next compound up: COc1ccc2nc(-c3cccs3)cc(C(O)CN3CCSCC3)c2c1 (centres undefined) 55.4 µM
